Molecular target: Microphthalmia-associated transcription factor (Homo sapiens, UniProt O75030)
Sequence (O75030 whole entry): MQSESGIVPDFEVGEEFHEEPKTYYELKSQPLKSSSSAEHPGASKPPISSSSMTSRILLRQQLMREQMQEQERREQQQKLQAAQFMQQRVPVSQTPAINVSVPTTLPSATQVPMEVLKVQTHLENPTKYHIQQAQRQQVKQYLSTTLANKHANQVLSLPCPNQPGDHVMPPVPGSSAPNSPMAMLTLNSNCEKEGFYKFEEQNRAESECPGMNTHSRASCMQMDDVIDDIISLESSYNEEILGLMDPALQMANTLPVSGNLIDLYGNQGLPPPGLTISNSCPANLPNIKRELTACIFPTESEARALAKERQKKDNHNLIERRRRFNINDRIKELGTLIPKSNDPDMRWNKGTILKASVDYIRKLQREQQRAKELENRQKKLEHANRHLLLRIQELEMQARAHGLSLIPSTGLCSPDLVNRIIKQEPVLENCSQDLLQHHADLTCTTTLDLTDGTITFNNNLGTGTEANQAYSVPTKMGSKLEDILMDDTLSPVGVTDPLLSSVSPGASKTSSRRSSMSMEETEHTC
Experiment: TRPM1 promoter luciferase signal decrease, dose response, MITF inhibitor project, cell-based, SK-MEL-5, cherry-picked, set 3 (AID 493073);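 also: SK-MEL-5 melanoma cells with luciferase driven by the MITF target TRPM1 promoter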
Type: functional
Active and inactive are the calls of the source.
Measured AC50 accompanies every entry in the list below.

Smiles code | AC50
Cc1ccc(NC(=O)c2ncn(CCCN[C@H](C)c3cccc4ccccc34)n2)cc1C | 22.7 µM (active)
O=C(N/N=C/c1ccc([N+](=O)[O-])s1)c1cccc(Br)c1 | 4.83 µM (active)
Cc1ccc(C(=O)c2cccc(N)c2)cc1C | 3.62 µM (active)
COc1cc(SC)ccc1C(=O)Nc1ncc(C)s1 | 3.65 µM (active)

* * *

Target: UniProt:P55789
Sequence (P55789 whole entry): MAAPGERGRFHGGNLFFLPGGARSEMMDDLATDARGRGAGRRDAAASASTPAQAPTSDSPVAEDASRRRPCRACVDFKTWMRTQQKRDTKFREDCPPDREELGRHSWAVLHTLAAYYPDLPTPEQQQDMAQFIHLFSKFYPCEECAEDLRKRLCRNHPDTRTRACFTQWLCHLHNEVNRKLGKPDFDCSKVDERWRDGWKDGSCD
Assay: inhibitors of human ALR sulfhydryl oxidase, dose response, biochemical, H2O2 detection, luminescence, cherry-pick (AID 493248)
Calls of active or inactive are those of the source.
Classes used: True = active, False = inactive

Compound | Class name
CCN(CC)c1ccc(CNCc2cccs2)cc1 | True
COc1cccc(N2CCN(CC(=O)NCc3ccccc3)CC2)c1 | True
C/C(=N\NC(=O)c1ccncc1)c1ccc(N(C)C)cc1 | True
O=C(N/N=C\c1cccc(Cl)c1)c1ccc(Cn2cccn2)o1 | True
O=C(O)c1cccc2c1-c1ccccc1/C2=N\Nc1ccccc1 | True
Cc1cc2oc3cc(NCCC4CCCN4C)ccc3c(=O)c2cc1C (stereo unspecified) | True
CCn1c(S)nnc1CCn1c2ccccc2c2ccccc21 | False
COc1ccc(S(=O)(=O)Nc2c(C(=O)O)[nH]c3ccc(OC)cc23)cc1 | True
COc1ccc(N2C(=O)CSC2c2ccncc2)cc1 (stereo unspecified) | True
Cc1ccc(NC2CCCN(C(=O)CCc3ccncc3)C2)cc1C (stereo unspecified) | True
O=C(NCN1CCN(c2ccccc2)CC1)c1cnccn1 | True

* * *

Target: Eukaryotic translation initiation factor 4E (Mus musculus, UniProt P63073)
Sequence (P63073 whole entry): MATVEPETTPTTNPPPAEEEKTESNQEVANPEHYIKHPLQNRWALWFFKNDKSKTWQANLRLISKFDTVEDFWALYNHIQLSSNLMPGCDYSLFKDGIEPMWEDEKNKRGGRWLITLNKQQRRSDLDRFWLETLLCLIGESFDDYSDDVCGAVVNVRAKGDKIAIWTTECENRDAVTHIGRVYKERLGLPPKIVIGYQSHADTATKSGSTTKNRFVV
Test: eIF4E–eIF4G protein interaction inhibitors, dose response, biochemical, TR-FRET (AID 855);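 also: potency for disrupting eIF4E binding to eIF4GI seen as loss of FRET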
Assay type: functional
Activity calls are given as the source filed them.
Classes used: active, inactive

Compound | Class name
O=C(O)C1Nc2c(O)cccc2C2C=CCC12 (stereo not given) | active
O=C(O)C1CC(c2ccccc2F)=NO1 (stereo not given) | inactive
O=C1Nc2ccccc2C(=O)C1(Cl)Cc1ccccc1 (stereo not given) | inactive
CCN1CCN(CCNC(=O)c2ccc3c(c2)N(Cc2ccc(F)cc2)C(=O)/C(=C/c2ccccc2)S3)CC1 | inactive
O=C1CC(=O)N(Cc2ccco2)C(=O)N1 | inactive

* * *

Biological target: UniProt:O96028
Sequence (O96028 whole entry): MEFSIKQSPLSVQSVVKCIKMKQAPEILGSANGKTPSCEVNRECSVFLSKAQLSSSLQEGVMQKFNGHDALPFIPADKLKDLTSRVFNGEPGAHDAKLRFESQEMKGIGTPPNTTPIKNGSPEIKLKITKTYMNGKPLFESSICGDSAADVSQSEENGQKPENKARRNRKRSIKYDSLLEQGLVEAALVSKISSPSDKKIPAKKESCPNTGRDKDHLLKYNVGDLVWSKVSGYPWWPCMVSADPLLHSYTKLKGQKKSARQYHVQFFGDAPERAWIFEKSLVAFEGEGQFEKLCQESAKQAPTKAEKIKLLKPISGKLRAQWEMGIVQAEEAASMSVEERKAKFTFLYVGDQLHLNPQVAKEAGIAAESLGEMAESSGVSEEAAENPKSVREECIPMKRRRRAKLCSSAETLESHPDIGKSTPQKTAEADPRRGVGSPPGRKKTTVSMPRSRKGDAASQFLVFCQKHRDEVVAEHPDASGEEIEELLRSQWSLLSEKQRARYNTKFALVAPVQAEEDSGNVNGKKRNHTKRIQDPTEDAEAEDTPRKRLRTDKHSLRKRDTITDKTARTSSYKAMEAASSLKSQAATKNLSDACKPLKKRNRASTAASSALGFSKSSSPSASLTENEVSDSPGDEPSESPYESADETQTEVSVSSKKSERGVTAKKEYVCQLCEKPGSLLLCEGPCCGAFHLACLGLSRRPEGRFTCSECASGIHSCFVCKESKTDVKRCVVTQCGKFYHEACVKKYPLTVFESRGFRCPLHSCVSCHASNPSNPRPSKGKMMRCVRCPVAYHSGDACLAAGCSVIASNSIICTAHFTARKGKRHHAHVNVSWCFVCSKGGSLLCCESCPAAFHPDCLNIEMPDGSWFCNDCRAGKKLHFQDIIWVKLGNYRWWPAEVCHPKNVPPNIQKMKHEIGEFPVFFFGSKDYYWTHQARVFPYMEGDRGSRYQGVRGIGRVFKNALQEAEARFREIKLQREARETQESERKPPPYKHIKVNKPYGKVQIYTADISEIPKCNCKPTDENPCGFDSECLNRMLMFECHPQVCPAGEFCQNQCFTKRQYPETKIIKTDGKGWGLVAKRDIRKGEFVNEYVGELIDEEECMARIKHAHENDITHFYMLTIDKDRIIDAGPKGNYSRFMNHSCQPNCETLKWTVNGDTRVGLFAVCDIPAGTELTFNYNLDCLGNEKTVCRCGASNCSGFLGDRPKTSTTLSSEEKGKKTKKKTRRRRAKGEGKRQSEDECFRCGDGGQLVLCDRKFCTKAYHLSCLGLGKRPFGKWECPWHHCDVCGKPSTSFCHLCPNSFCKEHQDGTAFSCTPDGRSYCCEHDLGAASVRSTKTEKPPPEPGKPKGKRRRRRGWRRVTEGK
Format: biochemical
Activity calls are given as the source filed them.
Recorded metric: AC50

Smiles code | Endpoint value
CCN1/C(=C\C=C\C2=[N+](CC)c3ccccc3C2(C)C)C(C)(C)c2ccccc21.[O-][Cl+3]([O-])([O-])[O-] | > 20 µM (inactive)
Cc1cccc(C)c1N=Nc1c(C)cc(O)cc1C | > 20 µM (inactive)
O=C(Oc1ccccc1)c1cc(O)c(O)c(O)c1 | 4.01 µM (active)
CCCCCOC(=O)c1c(N)n(CCOC)c2nc3ccccc3nc12 | 15.7 µM (active)
COc1cc(/C=N/N=C2/C(=O)Nc3ccccc32)cc(OC)c1O | > 20 µM (inactive)
Cc1cnc(C2OCCO2)c2cccc(N)c12 | 18.5 µM (active)
S=C(Nc1ccc2nsnc2c1)N1CCCCC1 | 5.13 µM (active)
